Ref: patent US20120245137A1

# SUBJECT OF TEST: N-type calcium channel subunits (α1B, α2δ, and β3a) (Homo sapiens)
# Sequence (Q00975 whole entry): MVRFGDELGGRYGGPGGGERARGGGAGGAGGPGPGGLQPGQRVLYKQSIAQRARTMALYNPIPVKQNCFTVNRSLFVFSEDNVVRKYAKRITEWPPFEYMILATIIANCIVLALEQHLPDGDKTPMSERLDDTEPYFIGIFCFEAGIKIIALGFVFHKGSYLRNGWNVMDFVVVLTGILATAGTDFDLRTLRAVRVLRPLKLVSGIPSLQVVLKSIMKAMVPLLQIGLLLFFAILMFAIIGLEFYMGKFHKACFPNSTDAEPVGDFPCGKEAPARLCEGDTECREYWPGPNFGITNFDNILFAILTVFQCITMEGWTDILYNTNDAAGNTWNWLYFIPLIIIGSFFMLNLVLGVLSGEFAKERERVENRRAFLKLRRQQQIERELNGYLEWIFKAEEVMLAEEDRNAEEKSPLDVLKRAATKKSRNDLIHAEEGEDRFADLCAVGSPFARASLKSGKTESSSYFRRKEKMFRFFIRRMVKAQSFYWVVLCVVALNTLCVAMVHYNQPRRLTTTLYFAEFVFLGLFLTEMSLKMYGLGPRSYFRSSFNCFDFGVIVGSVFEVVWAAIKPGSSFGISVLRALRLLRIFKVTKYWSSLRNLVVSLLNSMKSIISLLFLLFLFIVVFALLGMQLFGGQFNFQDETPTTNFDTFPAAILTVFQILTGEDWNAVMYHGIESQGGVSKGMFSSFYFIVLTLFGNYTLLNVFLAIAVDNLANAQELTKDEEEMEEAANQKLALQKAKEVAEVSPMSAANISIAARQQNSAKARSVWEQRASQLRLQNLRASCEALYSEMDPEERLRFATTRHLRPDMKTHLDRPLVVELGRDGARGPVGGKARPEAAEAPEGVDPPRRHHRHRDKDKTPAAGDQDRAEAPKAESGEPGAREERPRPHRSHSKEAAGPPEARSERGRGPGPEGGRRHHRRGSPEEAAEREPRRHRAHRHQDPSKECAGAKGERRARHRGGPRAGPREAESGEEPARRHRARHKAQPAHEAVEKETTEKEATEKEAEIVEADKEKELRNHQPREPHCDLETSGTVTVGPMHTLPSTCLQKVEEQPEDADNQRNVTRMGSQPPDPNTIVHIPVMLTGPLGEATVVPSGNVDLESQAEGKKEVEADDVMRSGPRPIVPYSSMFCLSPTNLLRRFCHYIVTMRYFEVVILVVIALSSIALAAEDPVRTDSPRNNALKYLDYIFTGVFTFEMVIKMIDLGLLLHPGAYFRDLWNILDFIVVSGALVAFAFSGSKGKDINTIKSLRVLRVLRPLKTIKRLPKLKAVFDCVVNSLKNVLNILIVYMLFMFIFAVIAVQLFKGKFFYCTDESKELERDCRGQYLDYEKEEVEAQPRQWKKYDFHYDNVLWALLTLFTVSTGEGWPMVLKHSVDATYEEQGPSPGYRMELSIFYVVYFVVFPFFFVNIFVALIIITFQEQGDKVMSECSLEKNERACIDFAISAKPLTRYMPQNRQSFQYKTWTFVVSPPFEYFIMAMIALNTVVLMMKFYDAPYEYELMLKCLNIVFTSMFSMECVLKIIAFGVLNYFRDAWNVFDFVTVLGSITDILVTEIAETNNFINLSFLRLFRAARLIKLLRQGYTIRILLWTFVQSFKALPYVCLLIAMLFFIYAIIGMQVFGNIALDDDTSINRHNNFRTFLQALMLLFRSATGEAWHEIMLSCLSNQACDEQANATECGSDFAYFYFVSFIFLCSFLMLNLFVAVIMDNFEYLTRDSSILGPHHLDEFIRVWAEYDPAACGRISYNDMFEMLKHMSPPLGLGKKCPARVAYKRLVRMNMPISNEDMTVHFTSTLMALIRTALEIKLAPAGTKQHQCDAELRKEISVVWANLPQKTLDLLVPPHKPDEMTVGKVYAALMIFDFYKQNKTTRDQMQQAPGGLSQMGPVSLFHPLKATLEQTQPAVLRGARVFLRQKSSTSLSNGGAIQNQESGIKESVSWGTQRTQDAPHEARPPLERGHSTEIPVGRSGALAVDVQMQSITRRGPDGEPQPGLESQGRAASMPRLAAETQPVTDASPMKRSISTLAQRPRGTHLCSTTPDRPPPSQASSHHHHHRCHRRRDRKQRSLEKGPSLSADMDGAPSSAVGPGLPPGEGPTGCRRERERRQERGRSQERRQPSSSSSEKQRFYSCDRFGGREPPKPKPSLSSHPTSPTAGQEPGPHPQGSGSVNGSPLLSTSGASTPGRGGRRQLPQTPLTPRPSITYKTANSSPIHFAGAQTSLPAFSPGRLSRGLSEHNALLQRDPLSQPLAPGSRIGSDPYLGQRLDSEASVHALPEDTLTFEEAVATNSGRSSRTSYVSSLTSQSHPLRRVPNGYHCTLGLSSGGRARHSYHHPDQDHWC
# Sequence (P54289 25-1103 partner): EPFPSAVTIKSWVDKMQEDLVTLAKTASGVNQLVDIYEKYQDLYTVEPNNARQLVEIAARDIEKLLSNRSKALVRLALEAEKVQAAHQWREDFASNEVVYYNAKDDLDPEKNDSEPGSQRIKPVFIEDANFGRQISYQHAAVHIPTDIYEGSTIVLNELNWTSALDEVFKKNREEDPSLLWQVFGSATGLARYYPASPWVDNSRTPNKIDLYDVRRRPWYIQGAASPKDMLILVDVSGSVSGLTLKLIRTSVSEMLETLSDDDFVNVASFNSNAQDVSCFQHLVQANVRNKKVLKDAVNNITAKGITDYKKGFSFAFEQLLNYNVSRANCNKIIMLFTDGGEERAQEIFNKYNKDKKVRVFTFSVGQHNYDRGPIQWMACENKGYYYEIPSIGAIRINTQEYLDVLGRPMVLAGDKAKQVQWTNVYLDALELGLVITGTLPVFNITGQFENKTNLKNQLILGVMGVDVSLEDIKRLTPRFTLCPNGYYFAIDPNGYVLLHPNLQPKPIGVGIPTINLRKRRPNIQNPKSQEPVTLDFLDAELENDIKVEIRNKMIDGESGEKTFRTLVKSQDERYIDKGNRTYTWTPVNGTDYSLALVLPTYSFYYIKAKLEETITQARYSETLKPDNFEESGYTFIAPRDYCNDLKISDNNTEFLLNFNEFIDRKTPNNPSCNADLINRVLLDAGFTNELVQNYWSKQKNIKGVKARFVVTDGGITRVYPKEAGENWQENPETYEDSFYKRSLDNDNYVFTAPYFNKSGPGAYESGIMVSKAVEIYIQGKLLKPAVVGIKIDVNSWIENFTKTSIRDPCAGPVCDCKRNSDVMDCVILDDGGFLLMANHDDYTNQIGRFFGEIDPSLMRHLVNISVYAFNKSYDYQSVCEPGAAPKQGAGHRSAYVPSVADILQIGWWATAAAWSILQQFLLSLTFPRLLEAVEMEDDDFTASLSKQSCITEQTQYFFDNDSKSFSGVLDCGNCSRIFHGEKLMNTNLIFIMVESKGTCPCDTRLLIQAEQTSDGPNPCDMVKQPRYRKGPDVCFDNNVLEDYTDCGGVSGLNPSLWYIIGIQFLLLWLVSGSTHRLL
# Sequence (P54284 whole entry partner): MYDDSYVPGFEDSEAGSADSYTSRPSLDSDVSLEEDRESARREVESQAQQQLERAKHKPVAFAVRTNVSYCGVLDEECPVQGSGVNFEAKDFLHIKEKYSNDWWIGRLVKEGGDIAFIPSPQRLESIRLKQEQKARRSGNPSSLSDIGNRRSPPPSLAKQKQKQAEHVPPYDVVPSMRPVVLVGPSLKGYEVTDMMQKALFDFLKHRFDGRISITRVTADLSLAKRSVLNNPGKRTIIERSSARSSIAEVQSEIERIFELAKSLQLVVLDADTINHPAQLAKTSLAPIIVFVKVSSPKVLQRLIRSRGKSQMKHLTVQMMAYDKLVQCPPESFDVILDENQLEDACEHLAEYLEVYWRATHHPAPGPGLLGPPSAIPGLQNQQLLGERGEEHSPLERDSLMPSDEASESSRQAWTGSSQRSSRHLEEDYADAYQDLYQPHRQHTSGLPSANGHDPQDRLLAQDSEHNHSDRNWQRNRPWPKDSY
# TEST: Block of Cav2.2 channel, whole cell voltage clamp, manual and PatchXpress
# Format: cell-based
# TEST CONDITIONS: Table 5; table follows Assay Example 3 (whole cell voltage clamp / PatchXpress); assay not given
RESULT TYPE: IC50 (nM)
Answers are plain numbers, in nM.

Known results for compounds:
O=C(Nc1ccc(C(F)(F)F)cn1)[C@H]1C[C@@H](S(=O)(=O)c2cccc(C(F)(F)F)c2)C1: 1650
CC1(CNC(=O)c2nc3ccc(C(F)(F)F)cc3[nH]2)CCC(F)(S(=O)(=O)c2cccc(C(F)(F)F)c2)CC1 (stereo not shown): 1230
Cn1nc(C(F)(F)F)cc1C(=O)N[C@H]1CC[C@@](F)(S(=O)(=O)c2cc(F)cc(C(F)(F)F)c2)CC1: 630
O=C(N[C@H]1CC[C@H](CS(=O)(=O)c2cccc(C(F)(F)F)c2)CC1)c1cnccc1C(F)(F)F: 7110
CC(C)(C)c1nc([C@H]2C[C@H](S(=O)(=O)c3cccc(C(F)(F)F)c3)C2)c[nH]1: 2110

Dear colleague, could you send me IC50 for each of the items below? Thanks.
1. O=C(NC[C@H]1C[C@H](S(=O)(=O)c2cc(F)cc(C(F)(F)F)c2)C1)c1ccc(Cl)c(OC(F)(F)F)c1
2. CC1(NC(=O)c2ccnn2CC(F)(F)F)CCC(S(=O)(=O)c2cccc(C(F)(F)F)c2)CC1 (stereo not shown)

Result string:
1: 510; 2: 4920

* * *

Answer each item with its documented CAv1.2 IC50 Ratio closed/inact..
# SUBJECT OF TEST: CAv1.2 (Homo sapiens)
# TEST: FLIPR data, CAv1.2 channel blocking (Table 6)
# Type: cell-based
# TEST CONDITIONS: ratio closed/inactivated IC50
Answers are plain numbers.

Guide cases for CAv1.2 IC50 Ratio closed/inact., answers given:
CC(C)([C@H]1C[C@H](NS(=O)(=O)c2ccc(C(F)(F)F)cc2Cl)C1)S(=O)(=O)c1cc(F)cc(C(F)(F)F)c1: 5.2
CC(C)([C@H]1C[C@H](Nc2ccnc(C(F)(F)F)n2)C1)S(=O)(=O)c1cccc(OC(F)(F)F)c1: 6.1
CC(C)(C[C@H]1C[C@@H](NC(=O)CC2(N)CCCCC2)C1)S(=O)(=O)c1cccc(C(F)(F)F)c1: 0.9
CC(C)([C@H]1C[C@H](NC(=O)c2ccc(C(F)(F)F)nc2)C1)S(=O)(=O)c1cccc(C(F)(F)F)c1: 1.7
CC(C)(C[C@H]1C[C@H](NC(=O)c2ccc(Cl)cn2)C1)S(=O)(=O)c1cccc(C(F)(F)F)c1: 2.9
CC(C)([C@H]1C[C@@H](CNC(=O)c2ccc(F)c(Cl)c2)C1)S(=O)(=O)c1cccc(C(F)(F)F)c1: 4.7
CC(C)(C[C@H]1C[C@H](NC(=O)c2ccc(C(F)(F)F)nc2)C1)S(=O)(=O)c1cccc(C(F)(F)F)c1: 2
CC(C)([C@H]1C[C@@H](NC(=O)c2ccc(Cl)c(F)c2)C1)S(=O)(=O)c1cc(F)cc(C(F)(F)F)c1: 2.7

Hi! Can you tell me CAv1.2 IC50 Ratio closed/inact. for each of these molecules?
1. CC(C)S(=O)(=O)c1cc(C(F)(F)F)cnc1C(=O)N[C@H]1C[C@H](CC(C)(C)S(=O)(=O)c2cccc(C(F)(F)F)c2)C1
2. CC(C)([C@H]1C[C@@H](Nc2ccnc(C(F)(F)F)n2)C1)S(=O)(=O)c1cccc(OC(F)(F)F)c1
3. CC(C)([C@H]1C[C@H](NC(=O)c2cc(C(F)(F)F)n[nH]2)C1)S(=O)(=O)c1cccc(OC(F)(F)F)c1
4. CNC1(CC(=O)NCc2ccc(S(=O)(=O)c3cccc(C(F)(F)F)c3)cc2)CCCCC1
5. CC(C)([C@H]1C[C@H](NC(=O)c2cncc(C(F)(F)F)c2)C1)S(=O)(=O)c1cccc(C(F)(F)F)c1
6. CC(C)(C[C@H]1C[C@@H](NC(=O)c2ccc(Cl)cn2)C1)S(=O)(=O)c1cccc(C(F)(F)F)c1
7. CC(C)([C@H]1C[C@@H](NS(=O)(=O)c2ccc(Cl)c(F)c2)C1)S(=O)(=O)c1cccc(C(F)(F)F)c1
8. CC(C)(C1CC(CNC(=O)c2ccnc(C(F)(F)F)n2)C1)S(=O)(=O)c1cccc(C(F)(F)F)c1 (stereo not drawn)

Result string:
1: 1.2; 2: 3.4; 3: 3; 4: 1.5; 5: 1.3; 6: 1.8; 7: 1.7; 8: 1.8

Provide reported CAv1.2 IC50 Ratio closed/inact. for each item, in the same order as listed.
1. O=S(=O)(c1cccc(OC(F)(F)F)c1)[C@H]1C[C@@H](CNc2ccnc(C(F)(F)F)n2)C1
2. CC(C)([C@H]1C[C@H](NC(=O)c2ccnc(C(F)(F)F)c2)C1)S(=O)(=O)c1cccc(C(F)(F)F)c1
3. CC(C)([C@H]1C[C@@H](NS(=O)(=O)c2ccc(F)c(Cl)c2)C1)S(=O)(=O)c1cccc(C(F)(F)F)c1
4. CC(C)([C@H]1C[C@@H](CNC(=O)c2ccnc(C(F)(F)F)n2)C1)S(=O)(=O)c1cccc(C(F)(F)F)c1
5. O=C(NC[C@H]1C[C@H](S(=O)(=O)c2cc(F)cc(C(F)(F)F)c2)C1)c1ccc(OCC(F)(F)F)nc1
6. CC(C)(C[C@H]1C[C@H](NC(=O)c2cnc(C(F)(F)F)nc2)C1)S(=O)(=O)c1cccc(C(F)(F)F)c1
7. CC(C)([C@H]1C[C@@H](CNC(=O)c2ccnc(C(F)(F)F)c2)C1)S(=O)(=O)c1cccc(C(F)(F)F)c1
8. CC(C)([C@H]1C[C@@H](NS(=O)(=O)c2ccc(Cl)c(F)c2)C1)S(=O)(=O)c1cc(F)cc(C(F)(F)F)c1

Result string:
1. 2.6
2. 3
3. 1.6
4. 1.6
5. 2.6
6. 2.2
7. 4.2
8. 3.1

Below are some molecules; for each one, tell me its CAv1.2 IC50 Ratio closed/inact..
1. CC(C)([C@H]1C[C@@H](NC(=O)c2ccc(C(F)(F)F)nc2)C1)S(=O)(=O)c1cccc(C(F)(F)F)c1
2. CC(C)([C@H]1C[C@@H](NC(=O)c2ccc(Cl)cn2)C1)S(=O)(=O)c1cccc(C(F)(F)F)c1
3. CC(C)([C@H]1C[C@@H](NC(=O)c2cnc(C(F)(F)F)nc2)C1)S(=O)(=O)c1cccc(C(F)(F)F)c1

Result string:
1. 1
2. 1.1
3. 1

* * *

# SUBJECT OF TEST: CAv1.2 (Homo sapiens)
# TEST: FLIPR data, CAv1.2 channel blocking (Table 6)
# Assay type: cell-based
# TEST CONDITIONS: closed state, read-out: CAv1.2 IC50 Closed
Task for the reader: assign each of the following compounds its reported IC50.
Answers are plain numbers, in µM.

CC(C)([C@H]1C[C@@H](NC(=O)c2ccc(Cl)c(F)c2)C1)S(=O)(=O)c1cc(F)cc(C(F)(F)F)c1 [Compound 589]: 4.91

Now, please, on to the next compound.
Query string: Consider the compound CC(C)([C@H]1C[C@H](NS(=O)(=O)c2ccc(F)c(Cl)c2)C1)S(=O)(=O)c1cc(F)cc(C(F)(F)F)c1 [Compound 606] and give its recorded IC50.
Result string: 5.65

* * *

Would you kindly list pIC50 for each of these compounds?
# SUBJECT OF TEST: T-type calcium channel (Homo sapiens, UniProt O95180)
# TEST: T-type channel blocking, FLIPR data (Table 6)
# Format: cell-based
# TEST CONDITIONS: CAv3.2, inactivated state, read-out: CAv3.2 IC50 Inact.
Give bare numbers, as −log10 of the molar value.

Take a look at these entries with their results.
CC(C)([C@H]1C[C@H](NC(=O)c2ccc(Cl)c(F)c2)C1)S(=O)(=O)c1cc(F)cc(C(F)(F)F)c1 [Compound 596]: 5.95
CC(C)([C@H]1C[C@@H](NC(=O)c2ccc(C(F)(F)F)nc2)C1)S(=O)(=O)c1cccc(C(F)(F)F)c1 [Compound 576]: 5.00
CC(C)([C@H]1C[C@H](NS(=O)(=O)c2ccc(C(F)(F)F)cc2Cl)C1)S(=O)(=O)c1cccc(C(F)(F)F)c1 [Compound 666]: 5.66
CC(C)S(=O)(=O)c1cc(C(F)(F)F)cnc1C(=O)NCC1CC(C(C)(C)S(=O)(=O)c2cccc(C(F)(F)F)c2)C1 (stereo not shown) [Compound 613]: 5.26
CC(C)([C@H]1C[C@H](NS(=O)(=O)c2ccc(Cl)c(F)c2)C1)S(=O)(=O)c1cccc(C(F)(F)F)c1 [Compound 665]: 5.58
CC(C)([C@H]1C[C@@H](C(=O)Nc2ccc(C(F)(F)F)cc2)C1)S(=O)(=O)c1cccc(C(F)(F)F)c1 [Compound 756]: 5.92

Provide the reported pIC50 of each entry below, same order.
1. O=C(NC[C@H]1C[C@H](S(=O)(=O)c2cccc(OC(F)(F)F)c2)C1)c1cnc(C(F)(F)F)nc1 [Compound 696]
2. CC(C)([C@H]1C[C@H](NS(=O)(=O)c2ccc(C(F)(F)F)nc2)C1)S(=O)(=O)c1cccc(C(F)(F)F)c1 [Compound 668]
3. CC(C)([C@H]1C[C@@H](NS(=O)(=O)c2ccc(F)c(C(F)(F)F)c2)C1)S(=O)(=O)c1cccc(C(F)(F)F)c1 [Compound 628]
4. CC(C)([C@H]1C[C@H](C(=O)Nc2ccc(C(F)(F)F)cc2)C1)S(=O)(=O)c1cccc(C(F)(F)F)c1 [Compound 765]

Result string:
5.20
5.53
5.49
5.82

Please state pIC50 for every compound in the list that follows.
1. CC(C)(C1CC(CNC(=O)c2ccc(C(F)(F)F)cc2S(C)(=O)=O)C1)S(=O)(=O)c1cccc(C(F)(F)F)c1 (stereo not shown) [Compound 612]
2. O=C(NC[C@H]1C[C@H](S(=O)(=O)c2cc(F)cc(C(F)(F)F)c2)C1)c1ccc(C(F)(F)F)nc1 [Compound 704]
3. CC(C)([C@H]1C[C@@H](NS(=O)(=O)c2ccc(C(F)(F)F)cc2)C1)S(=O)(=O)c1cc(F)cc(C(F)(F)F)c1 [Compound 598]

Result string:
1: 5.40; 2: 5.06; 3: 5.34
